experiment: qHTS assay to identify small molecule antagonists of the sonic hedgehog signaling (Shh) pathway (AID 1259369); settings: NIH/3T3 Gli1-Luc reporter, Shh antagonist, luminescence 24 h; series mostly up to 92.4 µM; further: nearly all actives have a fitted effect of over 45% in size
Inconclusive results are not listed. Active and inactive are the calls of the source. The call rests on the fitted dose curve.
Response enum: yes (1) = active, no (0) = inactive

INSERT INTO assay_data (compound, assignedclass) VALUES
  ('CC(C)c1cccc(C(C)C)c1N1C(=O)c2ccc(O)cc2C1=O', 'yes (1)'),
  ('CCN(CC)CCOc1ccc(C(O)(Cc2ccc(Cl)cc2)c2ccc(C)cc2)cc1 (stereo not given)', 'yes (1)'),
  ('CCCCOCC', 'no (0)');

**Q:** // outcome(item) with item = `Cc1c(C(=O)O)cccc1[N+](=O)[O-]`
**A:** yes (1)

**Q:** What call does the record list for `O=C[C@H](O)[C@H](O)[C@H](O)CO` ?
**A:** no (0)
